Target: NAD-dependent protein deacetylase sirtuin-1 (Homo sapiens)
Sequence (Q96EB6 whole entry): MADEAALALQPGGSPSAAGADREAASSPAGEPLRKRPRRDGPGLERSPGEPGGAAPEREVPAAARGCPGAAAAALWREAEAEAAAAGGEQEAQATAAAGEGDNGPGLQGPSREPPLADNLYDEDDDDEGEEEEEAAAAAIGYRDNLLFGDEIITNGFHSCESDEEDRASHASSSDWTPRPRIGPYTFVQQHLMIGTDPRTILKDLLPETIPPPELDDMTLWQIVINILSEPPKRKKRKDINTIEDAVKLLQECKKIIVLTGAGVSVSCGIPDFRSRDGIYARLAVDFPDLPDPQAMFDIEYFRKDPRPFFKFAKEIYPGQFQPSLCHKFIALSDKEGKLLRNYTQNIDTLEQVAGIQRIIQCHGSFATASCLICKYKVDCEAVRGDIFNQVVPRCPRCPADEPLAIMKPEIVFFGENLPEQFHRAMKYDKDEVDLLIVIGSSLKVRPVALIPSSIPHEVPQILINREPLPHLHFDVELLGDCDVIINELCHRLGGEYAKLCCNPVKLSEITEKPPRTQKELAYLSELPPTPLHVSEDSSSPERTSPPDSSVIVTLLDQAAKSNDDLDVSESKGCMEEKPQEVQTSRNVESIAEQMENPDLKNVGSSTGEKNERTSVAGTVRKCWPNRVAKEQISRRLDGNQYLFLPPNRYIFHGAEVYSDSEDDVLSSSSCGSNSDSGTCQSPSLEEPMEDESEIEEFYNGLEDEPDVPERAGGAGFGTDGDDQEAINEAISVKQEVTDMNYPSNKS
QUANTITY_NAME: pIC50
To interpret pIC50, take it as minus log10 of a concentration measured in moles per litre.

query: State its pIC50 for this compound: O=C1CSC2=Nc3c(sc4ccc(Cl)cc34)C(c3ccc4ccccc4c3)N12 (stereo unspecified)
result: 5.37

* * *

test system: 786-0; test: Growth inhibition of human 786-0 cells at 10^-5 M incubated for 48 hrs by sulforhodamine B assay; assay type: functional; conditions: 786-0, 48 h, read-out: GI
Item-by-item account of inhibition of growth at 10 µM
Report as: number unit

These solved cases illustrate the format of a correct answer.
MOLECULE	MEASUREMENT_TARGET	inhibition of growth at 10 µM
O=[N+]([O-])c1cccc(C2NC(N3CCOCC3)=Nc3c2sc2ccc(Cl)cc32)c1 (stereo not given)	786-0	-5.37%
N=C1Nc2c(sc3ccc(Cl)cc23)C(c2cccc(Br)c2)N1 (stereo not given)	786-0	5.21%
O=C1CC(=O)N(C2=Nc3c(sc4ccc(Cl)cc34)C(c3cccc([N+](=O)[O-])c3)N2)N1 (stereo not given)	786-0	-4.83%
O=[N+]([O-])c1cccc(C2c3sc4ccc(Cl)cc4c3N=C3NN=C(c4cccc(F)c4)N32)c1 (stereo not given)	786-0	-1.01%
N=C1Nc2c(sc3ccc(Cl)cc23)C(c2ccc3ccccc3c2)N1 (stereo not given)	786-0	5.33%
O=C1SC2=Nc3c(sc4ccc(Cl)cc34)C(c3ccc4ccccc4c3)N2C1=O (stereo not given)	786-0	2.6%
O=C1Nc2c(sc3ccc(Cl)cc23)C(c2cccc([N+](=O)[O-])c2)N1 (stereo not given)	786-0	4.42%
O=C1Nc2c(sc3ccc(Cl)cc23)C(c2cccc(Br)c2)N1 (stereo not given)	786-0	-1.2%
O=C1Nc2c(sc3ccc(Cl)cc23)C(c2ccc3ccccc3c2)N1 (stereo not given)	786-0	6.06%

// next entry
query: Answer with the recorded inhibition of growth at 10 µM of O=[N+]([O-])c1cccc(C2c3sc4ccc(Cl)cc4c3N=C3NN=CN32)c1 (stereo not given) only.
result: 5.64%

* * *

test system: UACC-257; experiment: Growth inhibition of human UACC257 cells at 10^-5 M incubated for 48 hrs by sulforhodamine B assay; format: functional; conditions: UACC-257, 48 h, read-out: GI
QUANTITY_NAME: inhibition of growth at 10 µM (%)
Please give a number only; it is taken to be in %.

COMPOUND	inhibition of growth at 10 µM / %
O=C1CSC2=Nc3c(sc4ccc(Cl)cc34)C(c3ccc4ccccc4c3)N12 (stereo unspecified)	1.52

query: Please indicate inhibition of growth at 10 µM recorded for O=[N+]([O-])c1cccc(C2NC(=S)Nc3c2sc2ccc(Cl)cc32)c1 (stereo unspecified)
result: -0.4

query: Give inhibition of growth at 10 µM for the following compound: O=C1/C(=C\c2ccccc2O)Sc2ccc(Cl)cc21
result: -1.33

query: State its inhibition of growth at 10 µM: O=C1/C(=C\c2cccc(Br)c2)Sc2ccc(Cl)cc21
result: -6.58

query: Using known records, supply inhibition of growth at 10 µM for O=[N+]([O-])c1cccc(C2c3sc4ccc(Cl)cc4c3N=C3NN=NN32)c1 (stereo unspecified)
result: 3.87

query: Complete the entry with inhibition of growth at 10 µM for O=[N+]([O-])c1cccc(C2NC(N3CCOCC3)=Nc3c2sc2ccc(Cl)cc32)c1 (stereo unspecified)
result: -6.32

query: Name the recorded inhibition of growth at 10 µM of the compound listed here: O=C1SC2=Nc3c(sc4ccc(Cl)cc34)C(c3ccc4ccccc4c3)N2C1=O (stereo unspecified)
result: -0.63

query: For the compound NNC1=Nc2c(sc3ccc(Cl)cc23)C(c2cccc([N+](=O)[O-])c2)N1 (stereo unspecified) , report inhibition of growth at 10 µM.
result: -0.19

query: Output measured inhibition of growth at 10 µM for this item: O=C1/C(=C\c2cccc([N+](=O)[O-])c2)Sc2ccc(Cl)cc21
result: -6.4

query: Provide one value: measured inhibition of growth at 10 µM of N=C1Nc2c(sc3ccc(Cl)cc23)C(c2ccccc2O)N1 (stereo unspecified)
result: -10.3

query: # return recorded inhibition of growth at 10 µM for input O=C1Nc2c(sc3ccc(Cl)cc23)C(c2ccc3ccccc3c2)N1 (stereo unspecified)
result: 14.5

query: Give the reported value of inhibition of growth at 10 µM for this record: O=C1/C(=C\c2ccc3ccccc3c2)Sc2ccc(Cl)cc21
result: -3.36

query: Write down inhibition of growth at 10 µM measured for item N=C1Nc2c(sc3ccc(Cl)cc23)C(c2cccc([N+](=O)[O-])c2)N1 (stereo unspecified)
result: 9.45

query: Determine from records and report inhibition of growth at 10 µM for N=C1Nc2c(sc3ccc(Cl)cc23)C(c2cccc(Br)c2)N1 (stereo unspecified)
result: 1.22

* * *

Parameter: inhibition of growth at 10 µM. Scope: all listed entries.
system: OVCAR-8; assay: Growth inhibition of human OVCAR8 cells at 10^-5 M incubated for 48 hrs by sulforhodamine B assay; assay type: functional; conditions: OVCAR-8, 48 h, read-out: GI
Write down the numeric answer in % and omit the unit.

# annotated cases, reported inhibition of growth at 10 µM shown
COMPOUND	MEASUREMENT_TARGET	inhibition of growth at 10 µM [%]
O=[N+]([O-])c1cccc(C2c3sc4ccc(Cl)cc4c3N=C3NN=C(c4cccc(F)c4)N32)c1 (stereo not drawn)	OVCAR-8	-1.43
O=C1Nc2c(sc3ccc(Cl)cc23)C(c2ccc3ccccc3c2)N1 (stereo not drawn)	OVCAR-8	6.44
O=C1CC(=O)N(C2=Nc3c(sc4ccc(Cl)cc34)C(c3cccc([N+](=O)[O-])c3)N2)N1 (stereo not drawn)	OVCAR-8	-4.71
N=C1Nc2c(sc3ccc(Cl)cc23)C(c2ccccc2O)N1 (stereo not drawn)	OVCAR-8	-6.18
O=C1/C(=C\c2cccc([N+](=O)[O-])c2)Sc2ccc(Cl)cc21	OVCAR-8	0.87

query: Retrieve inhibition of growth at 10 µM measured for O=C1SC2=Nc3c(sc4ccc(Cl)cc34)C(c3ccc4ccccc4c3)N2C1=O (stereo not drawn) and print it.
result: 5.42

query: For O=C1CSC2=Nc3c(sc4ccc(Cl)cc34)C(c3cccc([N+](=O)[O-])c3)N12 (stereo not drawn) , write its inhibition of growth at 10 µM.
result: 0.58

query: Please list inhibition of growth at 10 µM recorded for the compound O=C1/C(=C\c2ccccc2O)Sc2ccc(Cl)cc21
result: 1.53

* * *

system: IGROV-1; test: Growth inhibition of human IGROV1 cells at 10^-5 M incubated for 48 hrs by sulforhodamine B assay; assay type: functional; conditions: IGROV-1, 48 h, read-out: GI
inhibition of growth at 10 µM listing for selected compounds.
// return numeric value only (unit: %, not printed)

Example entries and their recorded answers appear below.
COMPOUND	ENDPOINT_RESULT
N=C1Nc2c(sc3ccc(Cl)cc23)C(c2cccc([N+](=O)[O-])c2)N1 (centres undefined)	4.94
O=C1/C(=C\c2ccccc2O)Sc2ccc(Cl)cc21	0.45
O=[N+]([O-])c1cccc(C2NC(N3CCOCC3)=Nc3c2sc2ccc(Cl)cc32)c1 (centres undefined)	25
O=C1CC(=O)N(C2=Nc3c(sc4ccc(Cl)cc34)C(c3cccc([N+](=O)[O-])c3)N2)N1 (centres undefined)	20.8
CCOC(=O)CSC1=Nc2c(sc3ccc(Cl)cc23)C(c2cccc([N+](=O)[O-])c2)N1 (centres undefined)	21.6
N=C1Nc2c(sc3ccc(Cl)cc23)C(c2ccccc2O)N1 (centres undefined)	17.4

query: Read off the recorded inhibition of growth at 10 µM for O=[N+]([O-])c1cccc(C2c3sc4ccc(Cl)cc4c3N=C3NN=NN32)c1 (centres undefined)
result: -11.1

query: For the compound N#Cc1cnn(C2=Nc3c(sc4ccc(Cl)cc34)C(c3cccc([N+](=O)[O-])c3)N2)c1N (centres undefined) , give its reported inhibition of growth at 10 µM.
result: 23.1

query: # return recorded inhibition of growth at 10 µM for input O=C1CSC2=Nc3c(sc4ccc(Cl)cc34)C(c3cccc([N+](=O)[O-])c3)N12 (centres undefined)
result: 17.3
